# MEASUREMENT_TARGET: T1, TNFR1 (Homo sapiens, UniProt P19438)
# T1 chain: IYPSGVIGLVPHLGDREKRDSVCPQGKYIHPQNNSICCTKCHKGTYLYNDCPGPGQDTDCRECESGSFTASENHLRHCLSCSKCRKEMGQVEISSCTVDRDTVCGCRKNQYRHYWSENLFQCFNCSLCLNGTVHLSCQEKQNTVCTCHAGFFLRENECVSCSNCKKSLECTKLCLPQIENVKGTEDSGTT
# RUN_DESCRIPTION: yeast display SC50
PROPERTY_NAME: apparent Kd (screen) (nM)

Some binders with recorded apparent Kd (screen):
Q48F (designed binder) MTLQELLREEALRRAEAEAFRYALELLAEKFPEQKEYLLDLAEEIESFIRSLSGVDVEDVRKFLDKEWAWVKELLAEHPAELAEVEAARAARLAELRAEVEAKVAA    13.8
E5T (designed binder) MTLQTLLREEALRRAEAEAFRYALELLAEKFPEQKEYLLDLAEEIESQIRSLSGVDVEDVRKFLDKEWAWVKELLAEHPAELAEVEAARAARLAELRAEVEAKVAA    0.446
K103M (designed binder) MTLQELLREEALRRAEAEAFRYALELLAEKFPEQKEYLLDLAEEIESQIRSLSGVDVEDVRKFLDKEWAWVKELLAEHPAELAEVEAARAARLAELRAEVEAMVAA    0.718
R8S (designed binder) MTLQELLSEEALRRAEAEAFRYALELLAEKFPEQKEYLLDLAEEIESQIRSLSGVDVEDVRKFLDKEWAWVKELLAEHPAELAEVEAARAARLAELRAEVEAKVAA    0.653

1. E10N (designed binder) MTLQELLRENALRRAEAEAFRYALELLAEKFPEQKEYLLDLAEEIESQIRSLSGVDVEDVRKFLDKEWAWVKELLAEHPAELAEVEAARAARLAELRAEVEAKVAA
2. F20L (designed binder) MTLQELLREEALRRAEAEALRYALELLAEKFPEQKEYLLDLAEEIESQIRSLSGVDVEDVRKFLDKEWAWVKELLAEHPAELAEVEAARAARLAELRAEVEAKVAA
Query string: For the two items 1 and 2 , which reports the higher apparent Kd (screen) value? Kindly state the label of the option you pick.
Result string: 1

A. V71M (designed binder) MTLQELLREEALRRAEAEAFRYALELLAEKFPEQKEYLLDLAEEIESQIRSLSGVDVEDVRKFLDKEWAWMKELLAEHPAELAEVEAARAARLAELRAEVEAKVAA
B. F63R (designed binder) MTLQELLREEALRRAEAEAFRYALELLAEKFPEQKEYLLDLAEEIESQIRSLSGVDVEDVRKRLDKEWAWVKELLAEHPAELAEVEAARAARLAELRAEVEAKVAA
Query string: Among A and B , which shows a numerically higher apparent Kd (screen) result? Write down the label of the entry you select.
Result string: B
(B: 9.41 nM, A: 0.593 nM)

P. L82I (designed binder) MTLQELLREEALRRAEAEAFRYALELLAEKFPEQKEYLLDLAEEIESQIRSLSGVDVEDVRKFLDKEWAWVKELLAEHPAEIAEVEAARAARLAELRAEVEAKVAA
Q. L74H (designed binder) MTLQELLREEALRRAEAEAFRYALELLAEKFPEQKEYLLDLAEEIESQIRSLSGVDVEDVRKFLDKEWAWVKEHLAEHPAELAEVEAARAARLAELRAEVEAKVAA
R. A42K (designed binder) MTLQELLREEALRRAEAEAFRYALELLAEKFPEQKEYLLDLKEEIESQIRSLSGVDVEDVRKFLDKEWAWVKELLAEHPAELAEVEAARAARLAELRAEVEAKVAA
Query string: List items by apparent Kd (screen) in falling order. State the ranking by listing the labels in the requested order.
Result string: R, Q, P
(R: 3.99 nM, Q: 0.79 nM, P: 0.49 nM)

a. D65G (designed binder) MTLQELLREEALRRAEAEAFRYALELLAEKFPEQKEYLLDLAEEIESQIRSLSGVDVEDVRKFLGKEWAWVKELLAEHPAELAEVEAARAARLAELRAEVEAKVAA
b. A28E (designed binder) MTLQELLREEALRRAEAEAFRYALELLEEKFPEQKEYLLDLAEEIESQIRSLSGVDVEDVRKFLDKEWAWVKELLAEHPAELAEVEAARAARLAELRAEVEAKVAA
Query string: Lab log: flag the item ( a or b ) with the smaller apparent Kd (screen) figure. I would appreciate it if you answered with the label of your choice.
Result string: a
(a: 0.593 nM, b: 5.84 nM)

These measurements were taken from paper PMC12416549.
